Some compounds, each annotated with its measured % 25 nM CA200645 binding.
# MEASURED TARGET: human A3AR (Homo sapiens, UniProt P0DMS8)
# Construct: expressed in transfected cells
# Sequence (P0DMS8 whole entry): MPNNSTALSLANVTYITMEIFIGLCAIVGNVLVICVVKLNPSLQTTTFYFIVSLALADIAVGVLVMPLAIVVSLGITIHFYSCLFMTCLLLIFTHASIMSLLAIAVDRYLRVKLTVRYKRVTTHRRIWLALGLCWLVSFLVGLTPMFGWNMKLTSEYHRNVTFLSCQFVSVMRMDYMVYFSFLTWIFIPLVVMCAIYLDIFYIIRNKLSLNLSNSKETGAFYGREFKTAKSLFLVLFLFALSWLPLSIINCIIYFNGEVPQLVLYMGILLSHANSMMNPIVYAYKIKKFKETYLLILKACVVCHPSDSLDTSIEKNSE
# EXPERIMENTAL DETAILS: LOPAC library primary screen: single concentration (10 μM) inhibition of 25 nM CA200645 binding, PHERAstar FS
Counter-ions that a name gives are not always drawn.
Answer in %, number only, no unit symbol.

Answered cases to consult:
NC(=O)CN1CCCC1=O; 110.0
CCCCN(CC)c1nc(C)nc2c1c(C)cn2-c1c(C)cc(C)cc1C.Cl [CP-154526 hydrochloride]; 77.3
CC(NC(C)(C)C)C(=O)c1cccc(Cl)c1 (centres unmarked) [Bupropion hydrochloride]; 98.9
CC(C)NNC(=O)c1ccncc1.O=P(O)(O)O [Iproniazid phosphate]; 103.0

Entry COc1ccccc1N1CCN(CC(O)COc2cccc3ccccc23)CC1.Cl.Cl (centres unmarked) [Naftopidil dihydrochloride] : reported % 25 nM CA200645 binding = ?
98.6

Entry NC(CO)(CO)CO.O=C(c1ccccc1)c1ccc2n1CCC2C(=O)O (centres unmarked) [Ketorolac tris salt] : reported % 25 nM CA200645 binding = ?
93.7

----------
# MEASURED TARGET: human A3AR (Homo sapiens, UniProt P0DMS8)
# Construct: expressed in transfected cells
# EXPERIMENTAL DETAILS: LOPAC library primary screen: single concentration (10 μM) inhibition of 25 nM CA200645 binding, PHERAstar FS
Counter-ions that a name gives are not always drawn.
OBSERVED PROPERTY: % 25 nM CA200645 binding (%)
Answer in %, number only, no unit symbol.

Entry Nc1ccc(CCN2CCN(c3cccc(C(F)(F)F)c3)CC2)cc1 [PAPP] : reported % 25 nM CA200645 binding = ?
95.6

Entry Cc1cn[nH]c1.Cl [4-Methylpyrazole hydrochloride] : reported % 25 nM CA200645 binding = ?
102.3

Entry CN[C@H]1CC[C@@H](c2ccc(Cl)c(Cl)c2)c2ccccc21 [Sertraline hydrochloride] : reported % 25 nM CA200645 binding = ?
101.1

Entry Cl.Cn1c(CCCC(=O)O)nc2cc(N(CCCl)CCCl)ccc21 [Bendamustine hydrochloride] : reported % 25 nM CA200645 binding = ?
97.6

Entry O=C(O)C1CCNCC1 [Isonipecotic acid] : reported % 25 nM CA200645 binding = ?
88.5

----------
# MEASURED TARGET: human A3AR (Homo sapiens, UniProt P0DMS8)
# Construct: expressed in transfected cells
# EXPERIMENTAL DETAILS: LOPAC library primary screen: single concentration (10 μM) inhibition of 25 nM CA200645 binding, PHERAstar FS
Where a name gives a salt, the structure may show the parent alone.
Some compounds, each annotated with its measured % 25 nM CA200645 binding.
Answer in %, number only, no unit symbol.

Answered cases to consult:
C[N+]1(C)C2CCC1CC(OC(=O)c1c[nH]c3ccccc13)C2.[I-] (stereo not shown); 95.6
CC[C@H]1CN2CCc3cc(OC)c(OC)cc3[C@@H]2C[C@@H]1C[C@H]1NCCc2cc(OC)c(OC)cc21 [Emetine dihydrochloride hydrate]; 102.7
C[N+](C)(C)CCOP(=O)([O-])OP(=O)([O-])OC[C@H]1O[C@@H](n2ccc(N)nc2=O)[C@H](O)[C@@H]1O.[Na+]; 102.5
C=CCc1cccc(/C=N/NC(=O)CN2CCN(Cc3ccccc3)CC2)c1O; 105.3
O=c1c(O)c(-c2ccc(O)cc2O)oc2cc(O)cc(O)c12; 72.1
Br.Br.N=C(N)SCCN; 91.5
Cc1scc2c1N(C(=O)CN1CCN(C)CC1)c1ccccc1NC2=O [Telenzepine dihydrochloride]; 107.0
CCC1(c2ccccc2)C(=O)NCNC1=O; 96.1
NCCCP(=O)(O)O; 90.0
CC(N)Cc1c[nH]c2ccc(O)cc12.O=C(O)/C=C\C(=O)O (stereo not drawn) [alpha-Methyl-5-hydroxytryptamine maleate]; 115.5

Entry CC1=C(CC(=O)O)c2cc(F)ccc2/C1=C\c1ccc(S(C)(=O)=O)cc1 : reported % 25 nM CA200645 binding = ?
84.5

Entry source: paper PMC5733478
